experiment: Cell growth assay (WST-8) (Compounds B1-B278); type: cell-based; conditions: 96 h; T47D cell line; WST-8, 4 days; read-out: Cell Growth Inhibition in T47D cell line IC50

[
  {
    "Molecule": "COc1cc(N2CCC3(CCN(C(=O)CN4Cc5cc6c(cc5C4)C(=O)N(C4CCC(=O)NC4=O)C6=O)CC3)CC2)ccc1[C@@H]1c2[nH]c3ccccc3c2C[C@@H](C)N1CC(F)F (stereo partly drawn) [Compound B128]",
    "IC50": "1 to 10 nM"
  },
  {
    "Molecule": "C[C@@H]1Cc2c([nH]c3ccccc23)[C@@H](c2cnc(N3CC4(CC(CN5CCN6c7cc8c(cc7OC[C@@H]6C5)C(=O)N(C5CCC(=O)NC5=O)C8)C4)C3)nc2)N1CC(F)F (stereo partly drawn) [Compound B133]",
    "IC50": "1 to 10 nM"
  },
  {
    "Molecule": "C[C@@H]1Cc2c([nH]c3ccccc23)[C@@H](c2cnc(N3CCC(CN4CCN5c6ccc7c(c6OC[C@H]5C4)CN(C4CCC(=O)NC4=O)C7=O)CC3)nc2)N1CC(F)F (mixture of isomers) [Compound B254]",
    "IC50": "< 1 nM"
  },
  {
    "Molecule": "C[C@@H]1Cc2c([nH]c3ccccc23)[C@@H](c2cnc(N3CCC4(CC3)CN(C(=O)CN3CCN5c6ccc7c(c6OC[C@H]5C3)CN(C3CCC(=O)NC3=O)C7=O)C4)nc2)N1CC(F)F (stereo partly drawn) [Compound B176]",
    "IC50": "1 to 10 nM"
  },
  {
    "Molecule": "C[C@@H]1Cc2c([nH]c3ccccc23)[C@@H](c2cnc(N3CC4(CCC(CN5CCN6c7ccc8c(c7OC[C@H]6C5)CN(C5CCC(=O)NC5=O)C8=O)CC4)C3)nc2)N1CC(F)(F)CO (stereo partly drawn) [Compound B154]",
    "IC50": "1 to 10 nM"
  },
  {
    "Molecule": "C[C@@H]1Cc2c([nH]c3ccccc23)[C@@H](c2cnc(N3CCC4(CC3)CC(CN3CCC5(CC3)COc3c5ccc5c3CN(C3CCC(=O)NC3=O)C5=O)C4)nc2)N1CC(F)F (stereo partly drawn) [Compound B262]",
    "IC50": "< 1 nM"
  },
  {
    "Molecule": "C[C@@H]1Cc2c([nH]c3ccccc23)[C@@H](c2c(F)cc(N3CCC(CN4CCN5c6ccc7c(c6OC[C@H]5C4)CN(C4CCC(=O)NC4=O)C7=O)CC3)cc2F)N1CC(F)(F)CO (stereo partly drawn) [Compound B148]",
    "IC50": "< 1 nM"
  },
  {
    "Molecule": "C[C@@H]1Cc2c([nH]c3ccccc23)[C@@H](c2c(F)cc(N3CCN(C(=O)CN4CCN5c6ccc7c(c6OC[C@H]5C4)CN(C4CCC(=O)NC4=O)C7=O)CC3)cc2F)N1CC(F)F (stereo partly drawn) [Compound B151]",
    "IC50": "< 1 nM"
  },
  {
    "Molecule": "C[C@@H]1Cc2c([nH]c3ccccc23)[C@@H](c2cnc(N3CCC4(CCC(N5CCN6c7cc8c(cc7OC[C@@H]6C5)C(=O)N(C5CCC(=O)NC5=O)C8)CC4)CC3)nc2)N1CC(F)F (stereo partly drawn) [Compound B138]",
    "IC50": "1 to 10 nM"
  },
  {
    "Molecule": "C[C@@H]1Cc2c([nH]c3ccccc23)[C@@H](c2cnc(N3CCC4(CC3)CC(CN3CCN5c6ccc7c(c6OC[C@H]5C3)CN(C3CCC(=O)NC3=O)C7=O)C4)nc2)N1CC(F)F (stereo partly drawn) [Compound B181]",
    "IC50": "< 1 nM"
  },
  {
    "Molecule": "C[C@@H]1Cc2c([nH]c3ccccc23)[C@@H](c2c(F)cc(N3CC(C(=O)N4CCN5c6ccc7c(c6OC[C@H]5C4)CN(C4CCC(=O)NC4=O)C7=O)C3)cc2F)N1CC(F)F (mixture of isomers) [Compound B251]",
    "IC50": "< 1 nM"
  },
  {
    "Molecule": "C[C@@H]1Cc2c([nH]c3ccccc23)[C@@H](c2ccc(N3CCC4(CC3)CC(CN3CCC5(CC3)COc3c5ccc5c3CN(C3CCC(=O)NC3=O)C5=O)CO4)cn2)N1CC(F)(F)F (stereo partly drawn) [Compound B145]",
    "IC50": "< 1 nM"
  },
  {
    "Molecule": "COc1cc(N2CC3(CCC(CN4CCC5(CC4)COc4c5ccc5c4CN(C4CCC(=O)NC4=O)C5=O)CC3)C2)ccc1[C@@H]1c2[nH]c3ccccc3c2C[C@@H](C)N1CC(F)F (stereo partly drawn) [Compound B129]",
    "IC50": "< 1 nM"
  },
  {
    "Molecule": "C[C@@H]1Cc2c([nH]c3ccccc23)[C@@H](c2c(F)cc(N3CC[C@@H](CN4CCN5c6ccc7c(c6OC[C@H]5C4)CN(C4CCC(=O)NC4=O)C7=O)C3)cc2F)N1CC(F)(F)CO (stereo partly drawn) [Compound B149]",
    "IC50": "1 to 10 nM"
  },
  {
    "Molecule": "C[C@@H]1Cc2c([nH]c3ccccc23)[C@@H](c2c(F)cc(N3CCC(CN4CCN5c6ccc7c(c6OC[C@H]5C4)CN(C4CCC(=O)NC4=O)C7=O)CC3)cc2F)N1CC(F)F (mixture of isomers) [Compound B253]",
    "IC50": "< 1 nM"
  },
  {
    "Molecule": "C[C@@H]1CC2c3ccccc3NC2[C@@H](c2c(F)cc(N3CCC4(CC3)CC(CN3CCN5c6cc7c(cc6OC[C@H]5C3)C(=O)N(C3CCC(=O)NC3=O)C7)CO4)cc2F)N1CC(F)(F)CO (stereo partly drawn) [Compound B267]",
    "IC50": "> 10 nM"
  },
  {
    "Molecule": "C[C@@H]1Cc2c([nH]c3ccccc23)[C@@H](c2cnc(N3CCC4(CC3)CC(CN3CCN5c6ccc7c(c6OC[C@H]5C3)CN(C3CCC(=O)NC3=O)C7=O)CO4)nc2)N1CC(C)(C)F (stereo partly drawn) [Compound B168]",
    "IC50": "1 to 10 nM"
  },
  {
    "Molecule": "C[C@@H]1Cc2c([nH]c3ccccc23)[C@@H](c2cnc(N3CCC4(CCC(N5CCN6c7ccc8c(c7OC[C@H]6C5)CN(C5CCC(=O)NC5=O)C8=O)CC4)CC3)nc2)N1CC(F)F (stereo partly drawn) [Compound B163]",
    "IC50": "> 10 nM"
  }
]

* * *

Listed here: items and their measured IC50.
assay: Cell growth assay (WST-8) (Compounds B1-B278); type: cell-based; settings: 96 h; T47D cell line; WST-8, 4 days; read-out: Cell Growth Inhibition in T47D cell line IC50
Metric: IC50

[
  {
    "Compound": "C[C@@H]1Cc2c([nH]c3ccccc23)[C@@H](c2cnc(N3CCC4(CC3)CC(CN3CCN5c6ccc7c(c6OC[C@@H]5C3)CN(C3CCC(=O)NC3=O)C7=O)C4)nc2)N1CC(F)F (stereo partly shown)",
    "Metric": "IC50",
    "Test Result": "1 to 10 nM"
  },
  {
    "Compound": "C[C@@H]1Cc2c([nH]c3ccccc23)[C@@H](c2ccc(N3CCC4(CC3)CC(CN3CCN5c6cc7c(cc6OC[C@@H]5C3)C(=O)N(C3CCC(=O)NC3=O)C7)CO4)cn2)N1CC(F)(F)F (stereo partly shown)",
    "Metric": "IC50",
    "Test Result": "1 to 10 nM"
  },
  {
    "Compound": "COc1cc(N2CCC3(CC2)CC(CN2CCN4c5cc6c(cc5OC[C@@H]4C2)C(=O)N(C2CCC(=O)NC2=O)C6)C3)ccc1[C@@H]1c2[nH]c3ccccc3c2C[C@@H](C)N1CC(F)F (stereo partly shown)",
    "Metric": "IC50",
    "Test Result": "1 to 10 nM"
  },
  {
    "Compound": "C[C@@H]1Cc2c([nH]c3ccccc23)[C@@H](c2cnc(N3CC4(CCC(CN5Cc6cc7c(cc6C5)C(=O)N(C5CCC(=O)NC5=O)C7=O)CC4)C3)nc2)N1CC(F)(F)CO (stereo partly shown)",
    "Metric": "IC50",
    "Test Result": "> 10 nM"
  },
  {
    "Compound": "C[C@@H]1Cc2c([nH]c3ccccc23)[C@@H](c2cnc(N3CCC4(CC3)CC(N3CCN5c6ccc7c(c6OC[C@H]5C3)CN(C3CCC(=O)NC3=O)C7=O)C4)nc2)N1CC(F)F (stereo partly shown)",
    "Metric": "IC50",
    "Test Result": "1 to 10 nM"
  },
  {
    "Compound": "C[C@@H]1Cc2c([nH]c3ccccc23)[C@@H](c2cnc(N3CC4(C3)OCC(CN3CCN5c6ccc7c(c6OC[C@H]5C3)CN([C@H]3CCC(=O)NC3=O)C7=O)CO4)nc2)N1CC(F)(F)CO",
    "Metric": "IC50",
    "Test Result": "> 10 nM"
  },
  {
    "Compound": "C[C@@H]1Cc2c([nH]c3ccccc23)[C@@H](c2c(F)cc(-c3ncc(C(=O)N4CCN5c6cc7c(cc6OC[C@@H]5C4)C(=O)N([C@H]4CCC(=O)NC4=O)C7)cn3)cc2F)N1CC(F)F",
    "Metric": "IC50",
    "Test Result": "1 to 10 nM"
  },
  {
    "Compound": "C[C@@H]1Cc2c([nH]c3ccccc23)[C@@H](c2cnc(N3CCC4(CC3)CC(CN3CCN5c6ccc7c(c6OC[C@H]5C3)CN(C3CCC(=O)NC3=O)C7=O)C4)nc2)N1CC1(F)CC1 (stereo partly shown)",
    "Metric": "IC50",
    "Test Result": "1 to 10 nM"
  },
  {
    "Compound": "C[C@@H]1Cc2c([nH]c3ccccc23)[C@@H](c2cnc(N3CC4(CCC(N5CCN6c7ccc8c(c7OC[C@H]6C5)CN(C5CCC(=O)NC5=O)C8=O)CC4)C3)nc2)N1CC(F)(F)CO (stereo partly shown)",
    "Metric": "IC50",
    "Test Result": "< 1 nM"
  },
  {
    "Compound": "C[C@@H]1Cc2c([nH]c3ccccc23)[C@@H](c2cnc(N3CC4(CC(CN5CCN6c7ccc8c(c7OC[C@H]6C5)CN(C5CCC(=O)NC5=O)C8=O)C4)C3)nc2)N1CC(C)(F)F (stereo partly shown)",
    "Metric": "IC50",
    "Test Result": "1 to 10 nM"
  }
]
